So I've got a bunch of compounds here, and I need their nuclei count values.
Experiment: endothelial E-selectin expression blockers – imaging, HUVEC, immunofluorescence, MLSMR starter and 10KST1 sets, primary screen (AID 487);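 also: 100% = median nuclei count of all wells on the same plate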
Settings: HUVEC TNFalpha-induced E-selectin immunofluorescence imaging, at 2 µM; measured here: cell number, toxicity
One number for each entry, in %.

Solved cases below.
>>> quantitative_readout("COc1ccc(C)cc1S(=O)(=O)N1CCN(Cc2ccccc2)CC1")
102
>>> quantitative_readout("CCN(C#N)c1nc(NC(C)C)nc(NC(C)C)n1")
82.6
>>> quantitative_readout("Cc1cc(C(F)F)n2nc(C(=O)Nc3ccc(S(=O)(=O)N4CCCCCC4)cc3)nc2n1")
96.2
>>> quantitative_readout("O=C(N1CCOCC1)N1CCC(NC(=O)C23CC4CC(CC(C4)C2)C3)CC1")
81.8
>>> quantitative_readout("CCCn1c(SCC(=O)N2CCCc3ccccc32)nnc1-c1ccccn1")
113

# input for lookup
Need nuclei count, item Cc1cc(C)n(-c2nc3ccccc3c(=O)n2OCCOc2ccccc2)n1
94.2
